Measurement target: S1P3 (Homo sapiens, UniProt Q99500)
Sequence (Q99500 whole entry, species assumed): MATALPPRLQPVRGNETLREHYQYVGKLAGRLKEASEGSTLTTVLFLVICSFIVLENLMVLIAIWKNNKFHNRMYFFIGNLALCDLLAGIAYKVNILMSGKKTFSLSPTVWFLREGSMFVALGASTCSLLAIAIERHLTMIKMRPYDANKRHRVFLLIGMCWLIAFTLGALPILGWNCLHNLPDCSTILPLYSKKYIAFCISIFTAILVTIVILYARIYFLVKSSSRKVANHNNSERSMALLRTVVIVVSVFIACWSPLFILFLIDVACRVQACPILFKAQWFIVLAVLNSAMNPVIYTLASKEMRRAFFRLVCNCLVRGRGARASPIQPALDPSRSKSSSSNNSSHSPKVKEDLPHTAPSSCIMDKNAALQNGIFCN
Method: Receptor binding assay, [33P]sphingosine 1-phosphate competition (SPA), S1P3
Measurement context: 384 well-plate; read-out: S1P3 binding Ki (M) (384 well-plate)

Given smiles | Measurement target | Unit of measurement | Ki
COCc1cc(-c2nc(-c3ccc(CN(C)CC(=O)O)c(C(F)(F)F)c3)no2)ccc1-c1ccccc1C | S1P3 (Homo sapiens, UniProt Q99500) | M | 1.88e-06
Cc1cc(-c2nc(-c3ccc(CN(C)CC(=O)O)c(F)c3)no2)ccc1-c1ccccc1C(F)(F)F | S1P3 (Homo sapiens, UniProt Q99500) | M | 6.9e-06
Cc1ccccc1-c1ccc(-c2nc(-c3ccc(CN(C)CC(=O)O)c(F)c3)no2)cc1C(F)(F)F | S1P3 (Homo sapiens, UniProt Q99500) | M | 4.11e-07
CN(CC(=O)O)Cc1ccc(-c2noc(-c3ccc(-c4ccccc4F)c(C(F)(F)F)c3)n2)cc1 | S1P3 (Homo sapiens, UniProt Q99500) | M | 5.69e-07
Cc1cc(-c2nc(-c3ccc(CN(C)CC(=O)O)cc3Cl)no2)ccc1-c1ccccc1C(F)(F)F | S1P3 (Homo sapiens, UniProt Q99500) | M | 7.5e-06
CCc1ccccc1-c1ccc(-c2nc(-c3ccc(CN(C)CC(=O)O)cc3)no2)cc1C(F)(F)F | S1P3 (Homo sapiens, UniProt Q99500) | M | 2.93e-07
COCc1cc(-c2nc(-c3cccc(CN(C)CC(=O)O)c3)no2)ccc1-c1ccc(F)cc1C(F)(F)F | S1P3 (Homo sapiens, UniProt Q99500) | M | 1.18e-06
CCOc1cc(-c2nc(-c3ccc(CN(C)CC(=O)O)cc3)no2)ccc1-c1ccccc1C(F)(F)F | S1P3 (Homo sapiens, UniProt Q99500) | M | 2.21e-06
COCc1cc(-c2nc(-c3ccc(CN(C)CC(=O)O)cc3)no2)ccc1-c1ccccc1C(F)(F)F | S1P3 (Homo sapiens, UniProt Q99500) | M | 2.22e-06
COCCN(CC(=O)O)Cc1ccc(-c2noc(-c3ccc(-c4ccccc4C)c(C(F)(F)F)c3)n2)cc1 | S1P3 (Homo sapiens, UniProt Q99500) | M | 4.79e-07
Cc1cc(CN(C)CC(=O)O)ccc1-c1noc(-c2ccc(-c3ccccc3C)c(C(F)(F)F)c2)n1 | S1P3 (Homo sapiens, UniProt Q99500) | M | 4.68e-07
Cc1ccccc1-c1ccc(-c2nc(-c3ccc(CN(C)CC(=O)O)cc3Cl)no2)cc1C(F)(F)F | S1P3 (Homo sapiens, UniProt Q99500) | M | 2.85e-07
CCc1cc(-c2noc(-c3ccc(-c4ccccc4C)c(C(F)(F)F)c3)n2)ccc1CN(C)CC(=O)O | S1P3 (Homo sapiens, UniProt Q99500) | M | 8.1e-06
Cc1ccccc1-c1ccc(-c2nc(-c3cccc(CN(C)CC(=O)O)c3F)no2)cc1C(F)(F)F | S1P3 (Homo sapiens, UniProt Q99500) | M | 1.92e-07
Cc1cc(-c2nc(-c3cccc(CN(C)CC(=O)O)c3)no2)ccc1-c1ccccc1C(F)(F)F | S1P3 (Homo sapiens, UniProt Q99500) | M | 6.59e-06
COCc1cc(-c2nc(-c3ccc(CN(C)CC(=O)O)c(F)c3)no2)ccc1-c1ccccc1C(F)(F)F | S1P3 (Homo sapiens, UniProt Q99500) | M | 1.03e-06
Cc1ccccc1-c1ccc(-c2nc(-c3cccc(CN(C)CC(=O)O)c3)no2)cc1C(F)(F)F | S1P3 (Homo sapiens, UniProt Q99500) | M | 1.68e-07
COCc1cc(-c2nc(-c3cccc(CN(C)CC(=O)O)c3F)no2)ccc1-c1ccccc1C(F)(F)F | S1P3 (Homo sapiens, UniProt Q99500) | M | 9.14e-07
Cc1ccccc1-c1ccc(-c2nc(-c3ccc(CN(CC(=O)O)C(C)C)cc3)no2)cc1C(F)(F)F | S1P3 (Homo sapiens, UniProt Q99500) | M | 2.7e-06
Cc1cc(-c2noc(-c3ccc(-c4ccccc4C)c(C(F)(F)F)c3)n2)ccc1CN(C)CC(=O)O | S1P3 (Homo sapiens, UniProt Q99500) | M | 1.07e-06
COCc1cc(-c2nc(-c3cccc(CN(C)CC(=O)O)c3)no2)ccc1-c1ccccc1C(F)(F)F | S1P3 (Homo sapiens, UniProt Q99500) | M | 1.41e-06
Cc1cc(-c2nc(-c3cc(F)cc(CN(C)CC(=O)O)c3)no2)ccc1-c1ccccc1C(F)(F)F | S1P3 (Homo sapiens, UniProt Q99500) | M | 2.14e-06
CN(CC(=O)O)Cc1ccc(-c2noc(-c3ccc(-c4ccccc4C(F)(F)F)c(Cl)c3)n2)cc1F | S1P3 (Homo sapiens, UniProt Q99500) | M | 1.8e-05
Cc1ccccc1-c1ccc(-c2nc(-c3ccc(CN(C)CC(=O)O)c(Cl)c3)no2)cc1C(F)(F)F | S1P3 (Homo sapiens, UniProt Q99500) | M | 9.76e-07

###

Counter-ions that a name gives are not always drawn.
Observed property: melting point (°C)

Molecule | Value observed
COCc1cc(-c2nc(-c3cccc(CN(C)CC(=O)O)c3)no2)ccc1-c1ccccc1C(F)(F)F (as salt: hydrochloride) | 207
CN(CC(=O)O)Cc1cc(F)cc(-c2noc(-c3ccc(-c4ccccc4C(F)(F)F)c(Cl)c3)n2)c1 (as salt: hydrochloride) | 212
Cc1cc(-c2nc(-c3cc(F)cc(CN(C)CC(=O)O)c3)no2)ccc1-c1ccccc1C(F)(F)F (as salt: hydrochloride) | 207
CCOc1cc(-c2nc(-c3ccc(CN(C)CC(=O)O)cc3)no2)ccc1-c1ccccc1C(F)(F)F (as salt: hydrochloride) | 210
Cc1ccccc1-c1ccc(-c2nc(-c3ccc(CN(C)CC(=O)O)c(F)c3)no2)cc1C(F)(F)F (as salt: hydrochloride) | 183

###

Measurement target: S1P1 (Homo sapiens)
Method: Receptor binding assay, [33P]sphingosine 1-phosphate competition (SPA), S1P1
Measurement context: 96 well-plate; read-out: S1P1 binding Ki (M) (96 well-plate)
Description: Cells were suspended in 50 mM TRIS, pH 7.4, 2 mM EDTA, 250 mM Sucrose (buffer A) and 1× Complete protease inhibitor cocktail (Roche), and disrupted at 4° C. by N2 decompression using a cell disruption bomb (Parr Instrument). […] [33P]sphingosine 1-phosphate (3000 Ci/mmol; American Radiolabeled Chemicals, Inc.) was added to test compounds in 20% DMSO by competition. […] Binding data were analyzed using the GraphPad Prism program or Genedata software.
// Ki lookup, one value per entry

Given smiles | Ki, M
CCN(CCC(=O)O)Cc1cccc(-c2noc(-c3ccc(-c4ccccc4C)c(C(F)(F)F)c3)n2)c1 | 2.21e-10
Cc1ccccc1-c1ccc(-c2nc(-c3ccc(CN(C)CCC(=O)O)cc3)no2)cc1C(F)(F)F | 2.7e-10
Cc1ccccc1-c1ccc(-c2nc(-c3cccc(CN(C)CC(=O)O)c3)no2)cc1C(F)(F)F | 4.47e-10
CN(CC(=O)O)Cc1cc(F)cc(-c2noc(-c3ccc(-c4ccccc4)c(C(F)(F)F)c3)n2)c1 | 2.31e-10
COCc1cc(-c2nc(-c3cccc(CN(C)CC(=O)O)c3)no2)ccc1-c1ccc(F)cc1C(F)(F)F | 8.49e-10
Cc1cc(-c2nc(-c3ccc(CN(C)CC(=O)O)cc3)no2)ccc1-c1ccccc1C(F)(F)F | 1.04e-09
Cc1ccccc1-c1ccc(-c2nc(-c3ccc(CN(C)CC(=O)O)c(F)c3)no2)cc1C(F)(F)F | 6.81e-10

###

Measurement target: S1P1 (Homo sapiens, UniProt P21453)
Sequence (P21453 whole entry, species assumed): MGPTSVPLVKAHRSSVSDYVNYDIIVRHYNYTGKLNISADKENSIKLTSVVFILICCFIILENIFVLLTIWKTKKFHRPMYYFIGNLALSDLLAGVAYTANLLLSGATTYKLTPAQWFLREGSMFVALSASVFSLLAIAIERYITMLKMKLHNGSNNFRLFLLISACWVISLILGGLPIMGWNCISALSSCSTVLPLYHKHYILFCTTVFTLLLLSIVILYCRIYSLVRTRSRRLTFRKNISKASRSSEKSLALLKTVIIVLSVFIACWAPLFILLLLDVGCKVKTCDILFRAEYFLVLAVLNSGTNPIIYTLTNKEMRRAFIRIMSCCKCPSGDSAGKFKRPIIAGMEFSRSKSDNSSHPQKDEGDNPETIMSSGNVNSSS
Method: Receptor binding assay, [33P]sphingosine 1-phosphate competition (SPA), S1P1
Measurement context: 384 well-plate; read-out: S1P1 binding Ki (M) (384 well-plate)
Observed property: Ki (M)

Given smiles | Value observed
Cc1cc(-c2nc(-c3ccc(CN(C)CC(=O)O)c(F)c3F)no2)ccc1-c1ccccc1C(F)(F)F | 3.71e-09
CCOc1cc(-c2nc(-c3ccc(CN(C)CC(=O)O)cc3)no2)ccc1-c1ccccc1C(F)(F)F | 2.15e-09
Cc1cc(-c2noc(-c3ccc(-c4ccccc4C)c(C(F)(F)F)c3)n2)ccc1CN(C)CC(=O)O | 3.16e-09
Cc1ccccc1-c1ccc(-c2nc(-c3cccc(CN(C)CC(=O)O)c3)no2)cc1C(F)(F)F | 1.93e-09
Cc1ccccc1-c1ccc(-c2nc(-c3ccc(CN(C)CC(=O)O)cc3Cl)no2)cc1C(F)(F)F | 2.22e-09
COCc1cc(-c2nc(-c3ccc(CN(C)CC(=O)O)c(C(F)(F)F)c3)no2)ccc1-c1ccccc1C | 3.3e-09
CCc1ccccc1-c1ccc(-c2nc(-c3ccc(CN(C)CC(=O)O)cc3)no2)cc1C(F)(F)F | 1.5e-09
